Numbers sourced from patent US11548868B2.

target: IDO1 in Hela cancer cells (Homo sapiens); construct: endogenous in cells; assay: IDO1 Cellular Assay (kynurenine production in IFN-γ stimulated Hela cancer cells); conditions: human IFN-γ 50 ng/mL, 48 hours incubation, kynurenine at 490 nm
pIC50: −log10 of the molar value.
Observed property: pIC50

# count of solved cases: 4
Lookup: Indicate its recorded pIC50; the molecule in question is O=C(N[C@H]1[C@@H]2C[C@@](O)(c3cc(Cl)cc4cn[nH]c34)C[C@@H]21)c1ccccc1 [Example 129]
Found: 5.30 to 6.00

Lookup: Tell me its pIC50 given NC(=O)c1cccc(C(=O)N[C@H]2[C@@H]3C[C@@](O)(c4cc(Cl)cc5[nH]ncc45)C[C@@H]32)c1 [Example 157] as the entry.
Found: < 5.30

Lookup: Write down pIC50 measured for item CNC(=O)N[C@H]1[C@@H]2C[C@@](O)(c3cc(Cl)cc4[nH]ncc34)C[C@@H]21 [Example 114]
Found: < 5.30

Lookup: Give reported pIC50 value for CNS(=O)(=O)N[C@H]1[C@@H]2C[C@@](O)(c3cc(Cl)cc4[nH]ncc34)C[C@@H]21 [Example 9]
Found: ≥ 6.30

***
Lookup: Dear colleague, please send me the reported pIC50 for O=C(Nc1ccc(Cl)cc1)N1C[C@@H]2C[C@@](O)(c3cc(Cl)cc4[nH]ncc34)C[C@@H]2C1 [Example 165] when you can.
Found: 5.30 to 6.00

Lookup: Answer with the recorded pIC50 for the molecule listed here: O=C(c1ccccc1)N1C[C@@H]2C[C@@](O)(c3cc(Cl)cc4[nH]ncc34)C[C@@H]2C1 [Example 36]
Found: < 5.30

Lookup: Could you please provide reported pIC50 for O=C(Nc1ccc(Cl)cc1)N[C@H]1[C@@H]2C[C@@](O)(c3cc(Cl)cc4[nH]ncc34)C[C@@H]21 [Example 121] ? Thanks!
Found: ≥ 6.30

---

biological target: IDO1 in Hela cancer cells (Homo sapiens, UniProt P14902); construct: endogenous in cells; experiment: IDO1 Cellular Assay (kynurenine production in IFN-γ stimulated Hela cancer cells); settings: human IFN-γ 50 ng/mL, 48 hours incubation, kynurenine at 490 nm
Sequence (P14902 whole entry): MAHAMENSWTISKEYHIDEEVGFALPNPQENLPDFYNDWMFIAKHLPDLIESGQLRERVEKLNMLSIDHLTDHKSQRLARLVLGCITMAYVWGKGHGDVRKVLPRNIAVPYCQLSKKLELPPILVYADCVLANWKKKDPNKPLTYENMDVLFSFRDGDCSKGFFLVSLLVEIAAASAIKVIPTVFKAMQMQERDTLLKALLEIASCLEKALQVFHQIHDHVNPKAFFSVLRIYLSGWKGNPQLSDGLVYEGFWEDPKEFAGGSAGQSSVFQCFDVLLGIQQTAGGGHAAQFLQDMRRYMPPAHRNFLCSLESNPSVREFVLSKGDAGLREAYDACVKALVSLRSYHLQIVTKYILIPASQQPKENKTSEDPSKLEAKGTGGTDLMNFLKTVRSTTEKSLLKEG
Measured IC50 accompanies every entry in the list below.

Lookup: Provide measured IC50 on IDO1 in Hela cancer cells (Homo sapiens, UniProt P14902) for O=C(N[C@H]1[C@@H]2C[C@@](O)(c3cc(Cl)cc4[nH]ncc34)C[C@@H]21)c1ccnc2ccc(F)cc12 [Example 177] please.
Found: 0.5 to 1 µM

Lookup: Would you please give the reported IC50 of O=C(c1ccccc1)N1C[C@@H]2C[C@@](O)(c3cc(Cl)cc4cn[nH]c34)C[C@@H]2C1 [Example 98] with IDO1 in Hela cancer cells (Homo sapiens, UniProt P14902)?
Found: > 5 µM

Lookup: Provide IC50, recorded with IDO1 in Hela cancer cells (Homo sapiens, UniProt P14902), of O=S(=O)(N[C@H]1[C@@H]2C[C@@](O)(c3cc(Cl)cc4cn[nH]c34)C[C@@H]21)c1ccccc1 [Example 131]
Found: > 5 µM

Lookup: Fetch value of IC50 on IDO1 in Hela cancer cells (Homo sapiens, UniProt P14902) for CC(=O)N[C@H]1[C@@H]2C[C@@](O)(c3cc(C(F)(F)F)cc4[nH]ncc34)C[C@@H]21 [Example 164] .
Found: > 5 µM

Lookup: Find the measured IC50 of CS(=O)(=O)Nc1cccc(C(=O)N[C@H]2[C@@H]3C[C@@](O)(c4cc(Cl)cc5[nH]ncc45)C[C@@H]32)c1 [Example 141] with IDO1 in Hela cancer cells (Homo sapiens, UniProt P14902) as test system.
Found: > 5 µM

Lookup: Please tell me the measured IC50 for O=C(N[C@H]1[C@@H]2C[C@@](O)(c3cc(Cl)cc4[nH]ncc34)C[C@@H]21)c1cnon1 [Example 159] ; system: IDO1 in Hela cancer cells (Homo sapiens, UniProt P14902).
Found: > 5 µM

Lookup: Provide IC50, tested on IDO1 in Hela cancer cells (Homo sapiens, UniProt P14902), for O=C(CC(F)(F)F)N[C@H]1[C@@H]2C[C@@](O)(c3cc(Cl)cc4[nH]ncc34)C[C@@H]21 [Example 138] .
Found: > 5 µM

Lookup: Under IDO1 in Hela cancer cells (Homo sapiens, UniProt P14902): report IC50 of O=C(N[C@H]1[C@@H]2C[C@@](O)(c3cc(Cl)cc4[nH]ncc34)C[C@@H]21)c1cccc(OC(F)(F)F)c1 [Example 145] .
Found: ≤ 0.5 µM

---
Lookup: Find the measured IC50 of NC(=O)N[C@H]1[C@@H]2C[C@@](O)(c3cc(Cl)cc4[nH]ncc34)C[C@@H]21 [Example 135] with IDO1 in Hela cancer cells (Homo sapiens, UniProt P14902) as test system.
Found: > 5 µM

Lookup: Report IC50 from IDO1 in Hela cancer cells (Homo sapiens, UniProt P14902) testing of CNS(=O)(=O)N1C[C@@H]2C[C@@](O)(c3cc(Cl)cc4[nH]ncc34)C[C@@H]2C1 [Example 87]
Found: 1 to 5 µM
